Just for reference, the supplement of paper PMC9170038 is where these values come from.

System: MS2 coat protein
protocol_description: apparent KD of MS2 coat protein; designed switch direction (-1 OFF switch, 1 ON switch): 1; higher = weaker reporter binding
experimental_parameters: Eterna round: R95; input ligand: FMN 200 uM
For each entry below, report its apparent KD of MS2 coat protein value.
One number for each entry, in nM.

seq_text	result_unit	apparent KD of MS2 coat protein
UGCUAUUGUAUAUUGGUGCAAGCUUAUUGACAUGAGGAUCACCCAUGUACUCGUCUUAUGUGCAGUCCGUAGACUGC [JL-shm-2.25 Brourd mod] (puzzle: Sensor for hsa-mir-208a)	nM	72
AGUCCAGCCUGAGCUGGACAAAAGCAUGUACAUGAGGAUCACCCAUGUUCAUGUACAAGCUUUUUGCUCGUCUUACU [salish99_208a_r3_077] (puzzle: Sensor for hsa-mir-208a)	nM	618
AGCUAUCGCGUACGAUAGCUGAAGCAUGUACAUGAGGAUCACCCAUGUCAUGUGCAGGCUUUUUGCUCGUCUUAUUG [JL-shm-2.30 JL mod] (puzzle: Sensor for hsa-mir-208a)	nM	68.9
UUUAGUUGCGGGCAGGAUAUGUAUUAAAGUACAUGAGGAUCACCCAUGUGCGGGUAUAACACCCGACAGAAGGGCCAAUCGCGAC [Laonerce - 1] (puzzle: Same State 2)	nM	17.7

Okay, here is my list. What is apparent KD of MS2 coat protein for each of these?
1. GGUCCAGCCUGAGCUGGACAAAAGCAUGUACAUGAGGAUCACCCAUGUUAUGUACAAGCUUUUUGCUCGUCUUAAAA [JL mod - D87 - 10] (puzzle: Sensor for hsa-mir-208a)
2. CGAUGAUACUCAGGAAGGAGAGUAGAGGAACAUGAGGAUCACCCAUGUAUGAGCUUUUUGCUCGUCAUGAACAGGAG [JR_SHM208a_Sub009] (puzzle: Sensor for hsa-mir-208a)
3. GUGUGUUGCGGGCAGGAUAUGUACUUGAGUACAUGAGGAUCACCCAUGUGCGCCUGUUUCAGGCGACAGAAGGGCCUAUCGCGAC [JL-ss2-3.26 ViennaUCT mod] (puzzle: Same State 2)
4. AGCUAUCGAAAACGAUAGCAAAAGCAUGUACAUGAGGAUCACCCAUGUCAUGUACAAGUUUUUUGCUCGUCUUAAAA [Zipper 23 - 13] (puzzle: Sensor for hsa-mir-208a)
5. GGUCCCUACGCACAGGAUAUUCUUUUGGCAACAUGAGGAUCACCCAUGUGUGCCGAUCAUGGUUAGAAGAAGGGUGGUAAGGACG [Qucesosobe] (puzzle: Same State 2)
6. AGUCCAGCCUGAGCUGGACAAAAGCAUGUACAUGAGGAUCACCCAUGUUCAUGUGCAAGCUUUUUGCUCGUCUUAAA [Zipper 52 - 4] (puzzle: Sensor for hsa-mir-208a)

Resp:
1. 172
2. 107
3. 121
4. 107
5. 9.76
6. 64.9

* * *

System: MS2 coat protein
protocol_description: apparent KD of MS2 coat protein; higher = weaker reporter binding
experimental_parameters: Eterna round: R107; input ligand: theophylline 2 mM
observed_property: apparent KD of MS2 coat protein

Answered cases to consult:
seq_text	apparent KD of MS2 coat protein
ACCUGUACGAAAAGUGCAGGACAUGGAAAUCGAGGACCGGUACGGCCGCCACUCGUUGAAAACAAGUGGAUCACCCUUGUCCAUG [TrypAS 3 #AlternativeMS2 #Zipper #StaticStem]	872 nM
UGAAAGUAGGGAAGGAGCGCUACAACAUGAGGAUCACCCAUGUUAUGAGGAUCACCCGUGUGGCAGGUAGGUCGCCCAAAACAUG [#13 Same State - Arginine B]	35.6 nM
GACAUGAGGAUCACCCAUGUACCGCGAGAAGGAGCGCGGAUAAACGCAGGUAGGUCGCUCGUGGGCUCACAUUCAAUUGUAAGCU [Digece]	58.3 nM
GGGCGCUAUCCCGCGAGGGAUAGCGUUCGACGAGGACCGGUACGGCCGCCACUCGAACGAGUGGUGACAUGAGGAUCACCCAUGU [Naa]	59.4 nM
GUGCGGUUUGAUGAUACCAGAUGUGGUGGGAACAUGAGGAUCACCCAUGUUGUGAAACAGGUCCCUUGGCAGCAUGAGUGAGCUU [TheoB-ms2@32-1]	290 nM
CUAUAAGUACCGGUCCUCAGAUCCUCAUGACGAGGACCGGUACGGCCGCCACUCGAAACAUGAGGAUCACCCAUGUAAUAAUAAU [Brourdmod06]	24.5 nM
AGAGUCAGACAAAAGUCUGGCUCAGCCGAAGGAGCGUCCGAAAGGACAGGUAGGUCGCGGUUCCAUGAGGAUCACCCAUGGUCCU [ArgAS 28 #OpenEnded #AlternativeMS2]	119 nM
AAACAUGAGGAUCACCCAUGUUCUCGUGUCCGAGGACCGGUACGGCCGCCACUCGGUUCUCGCGAGGAUGGUCAAAGACUAUCCA [Omei Trp A SS B v6]	46.6 nM
UAUAUAUAGGGAAGGAGCGGGAACAUGAGGAUCACCCAUGUACAUGAGGAUCACCCAUGUACCCAGGUAGGUCGCCCAUAUAUAU [Exclusion - Arginine B]	276 nM
CACGGAAGAGUGGAUCACCCUCUUAAUAAACGAGGACCGGUACGGCCGCCACUCGAAAACCGUGACCUGUACGAAAAGUGCAGGA	437 nM

Okay, here is my list. What is apparent KD of MS2 coat protein for each of these?
1. AGUUAUUUCCGAAGGAGCGUUAUACAUGAGGAUCACCCAUGUACAUGAGGUUCAACAUGAAAACAGGUAGGUCGCGGAUUUUGUC [Exclusion Arginine B4]
2. UGGCGAGAAGGAAGGAGCGUCAGCUGAGUCACAUGAGGAUCACCCAUGUAGGACAUGGUGUGACAGGUAGGUCGCCUUCUGCCCU [SS-ArgB18]

Resp:
29 nM
22.5 nM

* * *

For each entry below, report its apparent KD of MS2 coat protein value.
Tested on: MS2 coat protein
protocol_description: apparent KD of MS2 coat protein; designed switch direction (-1 OFF switch, 1 ON switch): -1; higher = weaker reporter binding
experimental_parameters: input ligand: microRNA oligo, concentration not stated
Give bare numbers, in nM.

seq_text	result_unit	apparent KD of MS2 coat protein
GCGCAGCUGGUAGGAUAUUACAGACAGGACUCACGUAAGGGAGCCUGACAUGAGGAUCACCCAUGUAAGAAGGGCCGUGGUAUC [Eternabot solution 11] (Eterna round: R96, puzzle: Exclusion NG 2)	nM	19.8
UGAGUGCUGCGAGGAUAUACAUGAGGAUCACCCAUGUAAUCGUGUGAGGCUUUGCCUCACACGAAGUAGAAGGCGCAGUACUCU [JL ENG2 1.10] (Eterna round: R96, puzzle: Exclusion NG 2)	nM	9.84

Next up:
Req: Given the entry CCUCGAAGGCAAGGAUAUCCUACAUUGUUCUGGCCCGGGCAUGCUACAUGAGGAUCACCCAUGUGGGAGAAGGUGCGCCACGGC [Design 30] (Eterna round: R96, puzzle: Exclusion NG 2) , what apparent KD of MS2 coat protein was observed with MS2 coat protein?
Resp: 45

* * *

System: MS2 coat protein
protocol_description: apparent KD of MS2 coat protein, switch OFF state (with FMN for OFF switches, without FMN for ON switches); designed switch direction (-1 OFF switch, 1 ON switch): -1; higher = weaker reporter binding
experimental_parameters: FMN input: 0 or 200 uM; Eterna round: R93 (includes R88 designs)
observed_property: apparent KD of MS2 coat protein

Answered cases to consult:
seq_text	apparent KD of MS2 coat protein
CUCUUGUCAGGAUAUGUAAGAAAAGAAAAGAAAGAAAAGAAACAGAAGGGACAUGAGGAUCACCCAUGUAAGAA [EteRNA is fun!]	0.0531 µM
GAAAGGGCAGGAUAUGCAGAGAGAAAAAAAAAAAAAAAAAAACAUGAGGAUCACCCAUGUAGAAGGGCCGAAAG [salish99-ex2-03]	0.0481 µM

Next up:
Req: Given the entry AAAUUGUGAGGAUAUCUGGAUAGGAAAAAGAAAACCUAUCCAGAGAAGGCACAUGAGGAUCACCCAUGUAAAAA [JL cataway mod 5] , what apparent KD of MS2 coat protein was observed with MS2 coat protein?
Resp: 0.0968 µM

* * *

System: K4 kissing-loop RNA reporter;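 also: bound reporter read as fluorescence of individual clusters on recovered sequencing chips by microscopy, with normalized cluster intensities fitted with a binding model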
protocol_description: apparent KD of K4 kissing-loop reporter; higher = weaker reporter binding
experimental_parameters: Eterna round: R107; input ligand: none
observed_property: apparent KD of K4 kissing-loop reporter (nM)
Numbers only, in nM.

seq_text	meas_value
GCCGUACGCAUGGAUACCAGCAGAACUGCCCUCCCAGUGAUGUUGGGAGGAUCUUUCCUUUGCCCUUGGCAGCCAUGCGUACGGC	124
AGAACUGUCUGAGAUACCAGCUAAGGAGUGAUGUUCCUAAGUCCACGAAAGUGGACUCAUAGCCCUUGGCAGCUCAGACAGUUCA [#24 K4 Theophylline B Same State]	815

Next up:
Req: Given the entry AGGGAUGUUAAAGGAUAUAGAAAGUGAUGUUAGAAAGUGAGUGAUGUUGAUGUAAGUGAUGUUAUGUUAGAAGGUUAACAAAACG [ab] , what apparent KD of K4 kissing-loop reporter was observed with K4 kissing-loop RNA reporter?
Resp: 200
